Below is a list of entries, each paired with its recorded GI50 value.
Test system: MDA-N
Assay: NCI tumour cell line growth inhibition, 48 h
Active and inactive are the calls of the source. Cut-off read from the data, not from the text of the source: active = GI50 up to about 1.1 µM and inactive = higher.

- molecule: "COC(=O)c1c2c(cc3c1CC1(Cc4cc5c(c(C)c4C1)CCC5)C3)CCC2 (stereo not given)"
  valueType: "GI50"
  result: "> 100 µM (inactive)"
- molecule: "O=C(CNc1ccc(Cl)cc1Cl)NC1C=Cc2ccc(S(=O)(=O)Nc3ccc(Cl)cc3Cl)cc2C1=O (stereo not given)"
  valueType: "GI50"
  result: "> 100 µM (inactive)"
- molecule: "N#Cc1nc(CCCN2C(=O)c3ccccc3C2=O)oc1N"
  valueType: "GI50"
  result: "> 100 µM (inactive)"
- molecule: "CCOC(=O)c1c(Nc2ccccc2)sc2cccnc12"
  valueType: "GI50"
  result: "6.73 µM (inactive)"
- molecule: "COC(=O)[C@@]1(C)CCC[C@]2(C(=O)O)C3Cc4occc4[C@H](C)[C@@H]3CCC21 (stereo not given in full)"
  valueType: "GI50"
  result: "75.9 µM (inactive)"

Quick note, GI50 for Cc1ccccc1Nc1nc2c(s1)C(=O)c1ccccc1C2=O landed at 1.95 µM (inactive)

Record CCOC(=O)C(NC(=O)CC)(Nc1ccc(S(=O)(=O)Nc2onc(C)c2C)cc1)C(F)(F)F (stereo not given) . Reported GI50: > 100 µM (inactive)

Briefly, GI50 measured for N#Cc1ccc(OC(=O)c2ccc(NC(=N)N)cc2)cc1.c1ccncc1 : 64.3 µM (inactive)

Per the records, this molecule ( O=C(O)CNn1c(SCC(=O)O)nnc(/C=C/c2c(O)ccc3ccccc23)c1=O ) has GI50 equal to 48.4 µM (inactive)

# GI50 of CN(CC(=O)Nc1ccccc1C(=O)O)c1ccccc1 = > 100 µM (inactive)
